Test system: 276233-004-R-J1-PDC complex spheroid viability;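 also: spheroids exposed to drugs for seven days; 100% = DMSO vehicle control viability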
Experiment: Anticancer human tumor 276233-004-R-J1-PDC patient-derived colon adenocarcinoma cell line growth inhibition [GQUAD]
Settings: second compound 10 µM; first compound 3.16 µM; hits give low values
From the text: DNA G-quadruplex Stabilizer Agents in Combinations in Complex Spheroids A high-throughput screen of multi-cell type tumor spheroids was designed to identify active combinations of DNA G-quadruplex stabilizer agents and targeted small molecules. […] Compounds. […] If the clinical Cmax for an agent had not been determined, the highest concentration tested was 10 microM. […]

- compound: "O=c1[nH]cc(F)c(=O)[nH]1 + Cc1[nH]c2ccc(F)cc2c1-c1nc2c3cccnc3c3ncccc3c2[nH]1"
  viability, T/C (%): 45.3
- compound: "CCCS(=O)(=O)Nc1ccc(F)c(C(=O)c2c[nH]c3ncc(-c4ccc(Cl)cc4)cc23)c1F + Cc1cnc(CNC(=O)c2c(=O)c3ccc(N4CCCN(C)CC4)nc3n3c2sc2ccccc23)cn1"
  viability, T/C (%): 77.1
- compound: "O=C(c1cc(Cc2n[nH]c(=O)c3ccccc23)ccc1F)N1CCN(C(=O)C2CC2)CC1 + Cc1cnc(CNC(=O)c2c(=O)c3ccc(N4CCCN(C)CC4)nc3n3c2sc2ccccc23)cn1"
  viability, T/C (%): 77.8
- compound: "O=C(NO)c1cnc(N2CCN(S(=O)(=O)c3ccc4ccccc4c3)CC2)nc1 + Cc1[nH]c2ccc(F)cc2c1-c1nc2c3cccnc3c3ncccc3c2[nH]1"
  viability, T/C (%): 1.25
- compound: "C=CC(=O)N1CCN(c2nc(=O)n(-c3c(C)ccnc3C(C)C)c3nc(-c4c(O)cccc4F)c(F)cc23)C(C)C1 (stereo unspecified) + CN(C)c1ccc(Nc2c3ccc(NC(=O)CCN4CCCC4)cc3nc3cc(NC(=O)CCN4CCCC4)ccc23)cc1"
  viability, T/C (%): 62.6
- compound: "CCCS(=O)(=O)Nc1ccc(F)c(C(=O)c2c[nH]c3ncc(-c4ccc(Cl)cc4)cc23)c1F + CN(C)c1ccc(Nc2c3ccc(NC(=O)CCN4CCCC4)cc3nc3cc(NC(=O)CCN4CCCC4)ccc23)cc1"
  viability, T/C (%): 39.3
- compound: "CC1COCCN1c1cc(C2(S(C)(=N)=O)CC2)nc(-c2ccnc3[nH]ccc23)n1 (stereo unspecified) + CN(C)c1ccc(Nc2c3ccc(NC(=O)CCN4CCCC4)cc3nc3cc(NC(=O)CCN4CCCC4)ccc23)cc1"
  viability, T/C (%): 37.2
- compound: "COc1ccc([C@@H](O)c2cc(-c3ncnc4cc(N5CCOCC5)ccc34)c(F)cc2Cl)nn1 + Cc1[nH]c2ccc(F)cc2c1-c1nc2c3cccnc3c3ncccc3c2[nH]1"
  viability, T/C (%): 29
- compound: "Nc1ccn(C2OC(CO)C(O)C2(F)F)c(=O)n1 (stereo unspecified) + Cc1cnc(CNC(=O)c2c(=O)c3ccc(N4CCCN(C)CC4)nc3n3c2sc2ccccc23)cn1"
  viability, T/C (%): 65.2
- compound: "COc1cccc2c1C(=O)c1c(O)c3c(c(O)c1C2=O)CC(O)(C(=O)CO)CC3OC1CC(N)C(O)C(C)O1 (stereo unspecified) + Cc1cnc(CNC(=O)c2c(=O)c3ccc(N4CCCN(C)CC4)nc3n3c2sc2ccccc23)cn1"
  viability, T/C (%): 39.4
- compound: "COc1cccc2c1C(=O)c1c(O)c3c(c(O)c1C2=O)CC(O)(C(=O)CO)CC3OC1CC(N)C(O)C(C)O1 (stereo unspecified) + Cc1[nH]c2ccc(F)cc2c1-c1nc2c3cccnc3c3ncccc3c2[nH]1"
  viability, T/C (%): 39.7
- compound: "CC1COCCN1c1cc(C2(S(C)(=N)=O)CC2)nc(-c2ccnc3[nH]ccc23)n1 (stereo unspecified) + Cc1[nH]c2ccc(F)cc2c1-c1nc2c3cccnc3c3ncccc3c2[nH]1"
  viability, T/C (%): 44
- compound: "COc1ccc([C@@H](O)c2cc(-c3ncnc4cc(N5CCOCC5)ccc34)c(F)cc2Cl)nn1 + Cc1cnc(CNC(=O)c2c(=O)c3ccc(N4CCCN(C)CC4)nc3n3c2sc2ccccc23)cn1"
  viability, T/C (%): 43.2
- compound: "CC1COCCN1c1cc(-c2ccnn2C)c2ccnc(-c3ccn[nH]3)c2n1 (stereo unspecified) + Cc1cnc(CNC(=O)c2c(=O)c3ccc(N4CCCN(C)CC4)nc3n3c2sc2ccccc23)cn1"
  viability, T/C (%): 49.2
- compound: "CC(C)n1c(=O)n(C)c2cnc3cc(F)c(-c4ccc(OCCCN5CCCCC5)nc4)cc3c21 + CN(C)c1ccc(Nc2c3ccc(NC(=O)CCN4CCCC4)cc3nc3cc(NC(=O)CCN4CCCC4)ccc23)cc1"
  viability, T/C (%): 107
- compound: "C#Cc1c(F)ccc2cc(O)cc(-c3ncc4c(N5CC6CCC(C5)N6)nc(OCC56CCCN5CC(F)C6)nc4c3F)c12 (stereo unspecified) + CN(C)c1ccc(Nc2c3ccc(NC(=O)CCN4CCCC4)cc3nc3cc(NC(=O)CCN4CCCC4)ccc23)cc1"
  viability, T/C (%): 36.6
- compound: "COc1ccc([C@@H](O)c2cc(-c3ncnc4cc(N5CCOCC5)ccc34)c(F)cc2Cl)nn1 + CN(C)c1ccc(Nc2c3ccc(NC(=O)CCN4CCCC4)cc3nc3cc(NC(=O)CCN4CCCC4)ccc23)cc1"
  viability, T/C (%): 46.8
- compound: "CC(C)n1c(=O)n(C)c2cnc3cc(F)c(-c4ccc(OCCCN5CCCCC5)nc4)cc3c21 + Cc1cnc(CNC(=O)c2c(=O)c3ccc(N4CCCN(C)CC4)nc3n3c2sc2ccccc23)cn1"
  viability, T/C (%): 80.8
- compound: "CC(C)(O)C1CCC(Nc2ccc3ncc(-c4cccc(C(F)(F)F)c4)n3n2)CC1 (stereo unspecified) + Cc1[nH]c2ccc(F)cc2c1-c1nc2c3cccnc3c3ncccc3c2[nH]1"
  viability, T/C (%): 13.7
- compound: "COc1cc(C2c3cc4c(cc3C(OC3OC5COC(C)OC5C(O)C3O)C3COC(=O)C23)OCO4)cc(OC)c1O (stereo unspecified) + Cc1cnc(CNC(=O)c2c(=O)c3ccc(N4CCCN(C)CC4)nc3n3c2sc2ccccc23)cn1"
  viability, T/C (%): 78.7
- compound: "COc1cc(C2c3cc4c(cc3C(OC3OC5COC(C)OC5C(O)C3O)C3COC(=O)C23)OCO4)cc(OC)c1O (stereo unspecified) + Cc1[nH]c2ccc(F)cc2c1-c1nc2c3cccnc3c3ncccc3c2[nH]1"
  viability, T/C (%): 41
